Field pIC50: reported value for Methionine aminopeptidase 2 (Homo sapiens); entries drawn from several documents.
pIC50: −log10 of the molar value.

CCCCOC1=Cc2c(cccc2OC[C@H]2CCCN2c2ncnc3[nH]cnc23)CC1 | 5.00 to 6.00
CC(=O)N1CCc2cc(N3CCC(O)(C(=O)NCCc4cc(F)cc(Cl)c4)C3=O)ccc21 (stereo not drawn) | 6.00 to 8.00
O=C(NCc1cc(F)cc(Cl)c1)[C@@]1(O)CCN(c2ccc(Br)c(CO)c2)C1=O | 6.00 to 8.00

Working through the 4 compounds below one at a time, give pIC50 for each.
1. O=C(NCc1cc(F)cc(Cl)c1)[C@]1(O)CCN(c2cc(C(F)(F)F)ccc2F)C1=O
2. C=C(Cc1ccccc1)C(=O)C1(O)CCN(c2ccccc2)C1=O (stereo not drawn)
3. FC(F)(F)Oc1ccc2nccc(OC[C@H]3CCCN3c3ccnc4ncnn34)c2c1
4. NS(=O)(=O)c1ccc(CCNC(=O)c2cc(OC[C@H]3CCCN3c3ccnc4ncnn34)c3ccccc3n2)cc1

1: 5.00 to 6.00; 2: < 5.00; 3: 6.00 to 8.00; 4: 6.00 to 8.00

Working through the 2 compounds below one at a time, give pIC50 for each.
1. CCc1nnnn1CCNC(=O)[C@@]1(O)CCN(c2ccccc2)C1=O
2. Cn1cc(N2CC[C@](O)(C(=O)NCc3cccc(Cl)c3F)C2=O)cn1

< 5.00
6.00 to 8.00

====

Field pIC50: reported value for Methionine aminopeptidase 2 (Homo sapiens); entries drawn from several documents.
pIC50: −log10 of the molar value.

Below are worked cases with known answers.
O=C(NCc1cccc(OC(F)(F)F)c1)[C@@]1(O)CCN(c2ccccc2)C1=O | 5.00 to 6.00
NCCOCCNC(=O)c1cc2cc(N3CC[C@](O)(C(=O)NCc4cc(F)cc(Cl)c4)C3=O)ccc2[nH]1 | 6.00 to 8.00

Working through the 2 compounds below one at a time, give pIC50 for each.
1. O=C1CCc2cc(N3CCC(O)(C(=O)NCc4cc(F)cc(Cl)c4)C3=O)c(F)cc2N1 (stereo not drawn)
2. CCOC(=O)c1c(OC[C@H]2CCCN2c2ncnc3[nH]cnc23)c2cc(F)ccc2n1C

1. 6.00 to 8.00
2. < 5.00

Working through the 4 compounds below one at a time, give pIC50 for each.
1. CNC(=O)/C=C1/CCc2c(OC[C@H]3CCCN3c3ncnc4[nH]cnc34)cccc2C1=O
2. O=C(NCCCn1ccnc1)[C@@]1(O)CCN(c2ccccc2)C1=O
3. O=C(NCc1cc(F)cc(Cl)c1)C1(O)CCN(c2cnc3[nH]c(C(F)(F)F)nc3c2)C1=O (stereo not drawn)
4. CNC(=O)c1cc2cc(N3CCC(O)(C(=O)NCc4cc(F)cc(Cl)c4)C3=O)ccc2o1 (stereo not drawn)

1: 6.00 to 8.00; 2: < 5.00; 3: 5.00 to 6.00; 4: 6.00 to 8.00

====

Field IC50: reported value for Methionine aminopeptidase 2 (Homo sapiens, UniProt P50579); entries drawn from several documents.
Sequence (P50579 whole entry, species assumed): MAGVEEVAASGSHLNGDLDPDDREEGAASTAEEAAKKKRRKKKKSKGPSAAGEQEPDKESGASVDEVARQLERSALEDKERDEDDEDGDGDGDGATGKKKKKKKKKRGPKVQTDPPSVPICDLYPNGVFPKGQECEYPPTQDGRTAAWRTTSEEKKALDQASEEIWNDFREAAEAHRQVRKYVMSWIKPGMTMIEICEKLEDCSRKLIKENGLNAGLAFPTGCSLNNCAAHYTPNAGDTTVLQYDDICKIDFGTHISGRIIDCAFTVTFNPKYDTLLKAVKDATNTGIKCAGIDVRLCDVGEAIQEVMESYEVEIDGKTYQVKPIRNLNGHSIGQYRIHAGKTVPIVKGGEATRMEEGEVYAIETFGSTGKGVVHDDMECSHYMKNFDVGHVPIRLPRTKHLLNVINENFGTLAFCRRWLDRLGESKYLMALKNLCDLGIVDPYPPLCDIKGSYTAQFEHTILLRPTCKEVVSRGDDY

Below are worked cases with known answers.
O=C(c1cccc(N2CC[C@](O)(C(=O)NCc3cc(F)cc(Cl)c3)C2=O)c1)N1CCCCC1 | 10 to 1000 nM
CCCN1CCN(Cc2ccc(OC[C@H]3CCCN3c3ncnc4[nH]cnc34)c3ccccc23)CC1 | 10 to 1000 nM
O=C(NCc1cccc(Cl)c1F)[C@@]1(O)CCN(c2ccc(F)cc2)C1=O | 10 to 1000 nM

Working through the 6 compounds below one at a time, give IC50 for each.
1. O=C(NCc1cc(F)cc(Cl)c1)C1(O)CCN(CC2CNC2)C1=O (stereo not drawn)
2. OC1CN(C2CCc3cccc(OC[C@H]4CCCN4c4ncnc5[nH]cnc45)c3C2)C1 (stereo partly drawn)
3. CNC(=O)CN1CCC(O)(C(=O)NCc2cc(F)cc(Cl)c2)C1=O (stereo not drawn)
4. O=C(NCc1ccc(F)c(Cl)c1)[C@]1(O)CCN(c2ccccc2)C1=O
5. O=C1CCc2cc(N3CC[C@](O)(C(=O)NCc4ccc(F)c(Cl)c4)C3=O)ccc2N1
6. O=C(NCCc1ccc(Cl)cc1)c1cc(OC[C@H]2CCCN2c2ccnc3ncnn23)c2ccccc2n1

["> 10000 nM", "10 to 1000 nM", "1000 to 10000 nM", "> 10000 nM", "10 to 1000 nM", "1000 to 10000 nM"]
